target: Follistatin-related protein 3 (Homo sapiens) (UniProt O95633); test: FSTL3 binders on small-molecule microarrays, primary screen, biochemical, small-molecule microarray, 635 nm fluorescence (AID 1105); settings: FSTL3 binding, higher = more signal;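 note: score merges emission near 667 nm and signal to noise per printed spot across three slides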
Sequence (O95633 whole entry, looked up): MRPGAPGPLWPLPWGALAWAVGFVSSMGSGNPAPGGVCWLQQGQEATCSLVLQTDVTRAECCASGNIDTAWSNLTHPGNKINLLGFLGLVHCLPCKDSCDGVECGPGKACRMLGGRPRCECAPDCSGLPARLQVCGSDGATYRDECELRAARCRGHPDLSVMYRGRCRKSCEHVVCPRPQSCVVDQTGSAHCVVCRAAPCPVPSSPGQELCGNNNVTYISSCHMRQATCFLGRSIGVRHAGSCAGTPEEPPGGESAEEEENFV
measure name: composite z-score
Enter a number only.

These recorded examples may help you get a feel for the data.
compound	assay value
CC(C)(C)OC(=O)CC[C@]1(C(=O)NCC(O)CO)N=C(c2ccc(OCCCO)cc2)O[C@H]1c1ccccc1 (some centres not stated)	-0.715
Cc1ccccc1C(O)C1C=CC2C(=O)N(C)C(=O)C2N1N(c1ccccc1)c1ccccc1 (configuration not stated)	0.0459
[N-]=[N+]=NCc1ccccc1C[C@@]1(C(=O)N2CCOCC2)N=C(c2ccc(OCCCO)cc2)O[C@@H]1c1ccccc1	-0.14
COCCOC(=O)N1C(=O)[C@@]2(c3cc(C#CCC(C(=O)OC)C(=O)OC)ccc31)[C@H](C(=O)N1CCc3cc(OC)c(OC)cc3C1)[C@H]1C(=O)O[C@H](c3ccccc3)[C@H](c3ccccc3)N1[C@@H]2c1ccc(OCCO)cc1	1.3

Summary for this compound, `COc1ccccc1CN1C(=O)c2ccccc2[C@@]2(Cc3ccccc3N(CC(F)(F)F)C2=O)[C@@H]1c1ccc(CO)cc1` : composite z-score is 0.614

Documented composite z-score of `COCCCNC(=O)[C@@]1(Cc2ccccc2N=[N+]=[N-])N=C(c2ccc(OCCCO)cc2)O[C@H]1c1ccccc1` : 0.402

Field composite z-score (entry `O[C@@H](Cc1ccccc1)[C@@H](/C=C/C1CC1)N(CC#Cc1ccccc1)Cc1cccc(Cl)c1` ) reads -1.54

###

Recorded z-score by entry
assay: A549 lung cancer cell viability effects, profiling panel, resazurin fluorescence, 24 h, PK04 Diversity Set (AID 1171); conditions: higher = more signal, called active from +8 up or from −8 down; note: test concentration not given here
Answer using only a numeral; do not append any unit.

Here are 2 compounds together with their reported answers.
1) CC(C)(C)OC(=O)CC[C@]1(C(=O)NCc2ccccc2)N=C(c2ccc(OCCCO)cc2)O[C@H]1c1ccccc1CN=[N+]=[N-] -0.768
2) COc1ccc([Si](C)(C)[C@@H]2[C@@H](CC(=O)N(CCO)Cc3ccccc3)O[C@]3(C(=O)N(Cc4cccc(N5CCOC5=O)c4)c4ccccc43)[C@H]2C)cc1 -2.25

Lookup result for `COC(=O)[C@@]1(Cc2ccc(F)cc2)[C@H]2c3cc(C(=O)N4CCCC4)n(CCN4CNCC4=O)c3C[C@H]2CN1C(=O)c1ccccc1` ; measured z-score: 0.415

###

test: basal RPMI8226 viability, no added stimulus, profiling panel, cell-based, calcein-AM fluorescence, 48 h, PK04 Diversity Set (AID 1166); conditions: RPMI8226 myeloma viability, higher = more signal;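 note: cells grown under basal conditions without added stimulus; test concentration not given here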
Values of z-score strictly less than -1 map to condition met, and values of at least -1 map to condition not met.

compound	category label
CN(C)CCCNC(=O)[C@@H]1c2ccccc2C(=O)N(Cc2ccccc2Cl)[C@H]1c1ccc(CO)cc1	condition not met
O=C1O[C@@H](c2ccccc2)[C@@H](c2ccccc2)N2[C@@H](c3ccc(O)cc3)[C@]3(C(=O)Nc4ccc(C#CC5=CCCCC5)cc43)[C@@H](C(=O)NC[C@H](O)c3ccccc3)[C@H]12	condition met

Bench note: check whether `COc1cc(CO)cc(I)c1O[C@H]1C=C(C(=O)NCCO)C[C@@H](NCc2ccc(F)cc2)[C@@H]1O` shows z-score below -1 condition not met

Hi there! Is z-score for Cc1cc(C)c(C(O)C2C=CC3C(=O)NC(=O)C3N2Nc2ccc(Cl)cc2Cl)c(C)c1 (stereo not drawn) below -1, do you know? condition met

Strictly below -1 in z-score? `CCCC[C@@H]1C[C@H]1[C@@H](NC(=O)c1ccccc1)c1ccc(C(F)(F)F)cc1` condition not met

Threshold test, z-score < -1: `CC(=O)NCCCC[C@@H]1NC(=O)[C@H]2C[C@@H](C(=O)NCCCC[N+](C)(C)C)[C@@H](c3cccc(OCCO)c3)N2C1=O` condition not met

# strict comparison: is reported z-score < -1? input = `O=C1C[C@@](C(=O)NCCN2CCOCC2)(c2ccc([N+](=O)[O-])cc2)[C@@H](c2ccc(CO)cc2I)N1C1CCCCC1` condition not met

Confirm or reject: z-score of `COCCOC(=O)N1C(=O)[C@@]2(c3cc(C#CC4(O)CCCCCC4)ccc31)[C@H](c1ccc(O)cc1)N1[C@H](c3ccccc3)[C@H](c3ccccc3)OC(=O)[C@H]1[C@@H]2C(=O)NC[C@H](O)c1ccccc1` lies strictly below -1 condition met
